Give measured POt½ in Rat for each item. Keep answers brief.
assay: Oral half-life and peak plasma levels; format: in vivo; conditions: oral
Give bare numbers, in h.

Known POt½ in Rat results, listed for orientation:
# Structure string, Reading
records = [
    ("Cc1cc(C)c(NC(=O)c2sccc2S(=O)(=O)Nc2noc(C)c2Cl)c(C)c1CC#N", 25.6),
    ("Cc1cc(C)c(NC(=O)c2sccc2S(=O)(=O)Nc2onc(C)c2Cl)c(C)c1CO", 1.5),
    ("Cc1cc(C)c(NC(=O)c2sccc2S(=O)(=O)Nc2onc(C)c2Cl)c(C)c1O", 7),
]

Attention now shifts to the item below.
Write down POt½ in Rat measured for item `Cc1cc(C)c(NS(C)(=O)=O)c(C)c1NC(=O)c1sccc1S(=O)(=O)Nc1onc(C)c1Cl`
5.9
